tested on: human mammary cancer BT-474 cells; assay: Growth inhibition test on human mammary cancer BT-474 cells (WST-1, % viability); assay type: cell-based; conditions: test compound 10 μmol/L, cells without test compound = 100%
observable: Viability of tumor cells (% viability), Human mammary cancer BT-474 cells (%)
Give bare numbers, in %.

Batch of 7 compounds: report Viability of tumor cells (% viability), Human mammary cancer BT-474 cells for each.
1. CCOc1ccc(C(=O)c2c(O)cc(O)c(CC)c2CC(=O)N(CCO)CCOC)cc1
2. CCc1c(O)cc(O)c(C(=O)c2ccc(OC)cc2)c1CC(=O)N1CCc2cc(OC)c(OC)cc2C1
3. CCc1c(O)cc(O)c(C(=O)c2ccc(SC)cc2)c1CC(=O)N(CCO)CCOC
4. CCc1c(O)cc(O)c(C(=O)c2ccc(OC)c(OC)c2)c1CC(=O)N(CCO)CCOC
5. CCc1c(O)cc(O)c(C(=O)c2ccsc2)c1CC(=O)N(CCO)CCOC
6. CCc1c(O)cc(O)c(C(=O)c2ccc(OCCN3CCOCC3)c(OC)c2)c1CC(=O)N(CCOC)CCOC
7. CCc1c(O)cc(O)c(C(=O)c2ccc(OC)cc2)c1CC(=O)N(CCO)CCOC

# output
12
13
13
13
13
14
13

Batch of 6 compounds: report Viability of tumor cells (% viability), Human mammary cancer BT-474 cells for each.
1. CCc1c(O)cc(O)c(C(=O)c2ccc(OC)cc2)c1CC(=O)N(CCO)Cc1ccco1
2. CCc1c(O)cc(O)c(C(=O)c2ccc(OC)cc2)c1CC(=O)N1CCN(c2ncccn2)CC1
3. CCc1c(O)cc(O)c(C(=O)c2ccc(OC(F)(F)F)cc2)c1CC(=O)N(CCO)CCOC
4. CCc1c(O)cc(O)c(C(=O)c2ccc(OC)cc2)c1CC(=O)N(CCO)CCO
5. CCc1c(O)cc(O)c(C(=O)c2ccc(OC(C)C)cc2)c1CC(=O)N(CCO)CCOC
6. CCc1c(O)cc(O)c(C(=O)c2ccc(S(C)(=O)=O)cc2)c1CC(=O)N(CCOC)CCOC

# output
13
13
13
12
13
13

Batch of 2 compounds: report Viability of tumor cells (% viability), Human mammary cancer BT-474 cells for each.
1. CCc1c(O)cc(O)c(C(=O)c2ccc(OCCCN3CCOCC3)c(OC)c2)c1CC(=O)N(CCOC)CCOC
2. CCc1c(O)cc(O)c(C(=O)c2ccc(C(F)(F)F)cc2)c1CC(=O)N(CCO)CCOC

# output
1: 14; 2: 13

###

I'd appreciate it if you could supply Viability of tumor cells (% viability), Human lung cancer NCI-H596 cells values for the items below.
system: human lung cancer NCI-H596 cells; assay: Growth inhibition test on human lung cancer NCI-H596 cells (WST-1, % viability); type: cell-based; conditions: test compound 10 μmol/L, cells without test compound = 100%
Numbers only, in %.

Here's what some known entries look like.
* CCc1c(O)cc(O)c(C(=O)c2ccc(C(F)(F)F)cc2)c1CC(=O)N(CCO)CCOC | 14
* CCc1c(O)cc(O)c(C(=O)c2ccc(OC)c(OC)c2)c1CC(=O)N1CCN(c2ccccc2)CC1 | 12
* CCc1c(O)cc(O)c(C(=O)c2ccc(OC)cc2)c1CC(=O)N1CCc2cc(OC)c(OC)cc2C1 | 15

Batch of 8 compounds: report Viability of tumor cells (% viability), Human lung cancer NCI-H596 cells for each.
1. CCc1c(O)cc(O)c(C(=O)c2ccc(OC(F)F)cc2)c1CC(=O)N(CCO)CCOC
2. CCc1c(O)cc(O)c(C(=O)c2ccc(OC)cc2)c1CC(=O)N(CCO)Cc1ccco1
3. CCc1c(O)cc(O)c(C(=O)c2ccc(O)c(OC)c2)c1CC(=O)N(CCOC)CCOC
4. CCc1c(O)cc(O)c(C(=O)c2ccc(OC(C)C)cc2)c1CC(=O)N(CCO)CCOC
5. CCc1c(O)cc(O)c(C(=O)c2ccc(OC(F)(F)F)cc2)c1CC(=O)N(CCO)CCOC
6. CCc1c(O)cc(O)c(C(=O)c2ccsc2)c1CC(=O)N(CCO)CCOC
7. CCc1c(O)cc(O)c(C(=O)c2ccc(OC)cc2)c1CC(=O)N1CCN(c2ncccn2)CC1
8. CCc1c(O)cc(O)c(C(=O)c2ccc(OC)cc2)c1CC(=O)N(C)Cc1cccnc1

# output
1. 14
2. 15
3. 12
4. 15
5. 14
6. 28
7. 15
8. 19

###

Test system: human T-cell lymphoma Karpas-299 cells
Assay: Growth inhibition test on human T-cell lymphoma Karpas-299 cells (WST-1, % viability)
Assay type: cell-based
Conditions: test compound 10 μmol/L, 72 hours, cells without test compound = 100%
Experimental: Five thousand cells of human T-cell lymphoma Karpas-299 were inoculated into each well of a 96-well microplate (manufactured by Nunc Corp.), and using RPMI medium (culture medium) containing 10% FCS, preculturing was performed in a 5% carbon dioxide incubator at 37° C. for 5 hours. […] Using a microplate spectrophotometer (SpectraMax 340PC384; manufactured by Nihon Molecular Devices), the absorbance of each well was measured at 450 nm and 655 nm. […]
I'd appreciate it if you could supply Viability of tumor cells (% viability), Human T-cell lymphoma Karpas-299 cells values for the items below.
Answers are plain numbers, in %.

• CCc1c(O)cc(O)c(C(=O)c2ccc(OC)cc2)c1CC(=O)N1CCc2cc(OC)c(OC)cc2C1 = 14
• CCc1c(O)cc(O)c(C(=O)c2ccc(OC(F)F)cc2)c1CC(=O)N(CCO)CCOC = 16
• CCc1c(O)cc(O)c(C(=O)c2ccc(OCCCN3CCOCC3)c(OC)c2)c1CC(=O)N(CCOC)CCOC = 14
• CCc1c(O)cc(O)c(C(=O)c2ccc(C(F)(F)F)cc2)c1CC(=O)N(CCO)CCOC = 15
• CCc1c(O)cc(O)c(C(=O)c2ccc(OC)cc2)c1CC(=O)N(CCO)CCOC = 14
• CCc1c(O)cc(O)c(C(=O)c2ccsc2)c1CC(=O)N(CCO)CCOC = 13

Now for a further compound.
# input Identify measured Viability of tumor cells (% viability), Human T-cell lymphoma Karpas-299 cells corresponding to CCc1c(O)cc(O)c(C(=O)c2ccc(O)c(OC)c2)c1CC(=O)N(CCOC)CCOC
# output 13

###

test system: human chronic myelocytic leukemia K562 cells; assay: Growth inhibition test on human chronic myelocytic leukemia K562 cells (WST-1, % viability); type: cell-based; details: test compound 10 μmol/L, 72 hours, cells without test compound = 100%
observable: Viability of tumor cells (% viability), Human chronic myelocytic leukemia K562 cells (%)
Answers are plain numbers, in %.

* CCc1c(O)cc(O)c(C(=O)c2ccc(OC(C)C)cc2)c1CC(=O)N(CCO)CCOC | 4

Batch of 3 molecules: report Viability of tumor cells (% viability), Human chronic myelocytic leukemia K562 cells for each.
1. CCc1c(O)cc(O)c(C(=O)c2ccc(OC(C)C)cc2)c1CC(=O)N(CCOC)CCN1CCOCC1
2. CCc1c(O)cc(O)c(C(=O)c2ccc(S(C)(=O)=O)cc2)c1CC(=O)N(CCOC)CCOC
3. CCc1c(O)cc(O)c(C(=O)c2ccc(OC)cc2)c1CC(=O)N1CCC(CO)CC1

# output
[4, 5, 5]

Batch of 3 molecules: report Viability of tumor cells (% viability), Human chronic myelocytic leukemia K562 cells for each.
1. CCc1c(O)cc(O)c(C(=O)c2ccc(OCCCN3CCOCC3)c(OC)c2)c1CC(=O)N(CCOC)CCOC
2. CCc1c(O)cc(O)c(C(=O)c2ccc(OCCN3CCOCC3)c(OC)c2)c1CC(=O)N(CCOC)CCOC.Cl
3. CCc1c(O)cc(O)c(C(=O)c2ccc(OC)cc2)c1CC(=O)N1CCN(c2ncccn2)CC1

# output
1. 4
2. 4
3. 4

###

system: human prostate cancer 22Rv1 cells; assay: Growth inhibition test on human prostate cancer 22Rv1 cells (WST-1, % viability); type: cell-based; conditions: test compound 10 μmol/L, 72 hours, cells without test compound = 100%
observable: Viability of tumor cells (% viability), Human prostate cancer 22Rv1 cells (%)
One number for each entry, in %.

Batch of 6 compounds: report Viability of tumor cells (% viability), Human prostate cancer 22Rv1 cells for each.
1. CCc1c(O)cc(O)c(C(=O)c2ccc(OC)cc2)c1CC(=O)N(CCO)Cc1ccco1
2. CCc1c(O)cc(O)c(C(=O)c2ccc(OC(C)C)cc2)c1CC(=O)N(CCOC)CCN1CCOCC1
3. CCc1c(O)cc(O)c(C(=O)c2ccc(SC)cc2)c1CC(=O)N(CCO)CCOC
4. CCc1c(O)cc(O)c(C(=O)c2ccc(OC)cc2)c1CC(=O)N(CCO)CCOC
5. CCc1c(O)cc(O)c(C(=O)c2ccc(OC)cc2)c1CC(=O)N1CCN(c2ccccc2C#N)CC1
6. CCc1c(O)cc(O)c(C(=O)c2ccc(S(C)(=O)=O)cc2)c1CC(=O)N(CCOC)CCOC

# output
1: 5; 2: 6; 3: 5; 4: 5; 5: 5; 6: 5

Batch of 8 compounds: report Viability of tumor cells (% viability), Human prostate cancer 22Rv1 cells for each.
1. CCc1c(O)cc(O)c(C(=O)c2ccc(OCCN3CCOCC3)c(OC)c2)c1CC(=O)N(CCOC)CCOC.Cl
2. CCc1c(O)cc(O)c(C(=O)c2ccc(OC)cc2)c1CC(=O)N1CCN(c2ncccn2)CC1
3. CCc1c(O)cc(O)c(C(=O)c2ccc(OC(F)(F)F)cc2)c1CC(=O)N(CCO)CCOC
4. CCc1c(O)cc(O)c(C(=O)c2ccc(OCCCN3CCOCC3)c(OC)c2)c1CC(=O)N(CCOC)CCOC
5. CCc1c(O)cc(O)c(C(=O)c2ccc(OCCN3CCOCC3)c(OC)c2)c1CC(=O)N(CCOC)CCOC
6. CCc1c(O)cc(O)c(C(=O)c2ccc(OC)c(OC)c2)c1CC(=O)N(CCO)CCOC
7. CCc1c(O)cc(O)c(C(=O)c2ccc(O)c(OC)c2)c1CC(=O)N(CCOC)CCOC
8. CCc1c(O)cc(O)c(C(=O)c2ccc(OC(C)C)cc2)c1CC(=O)N(CCO)CCOC

# output
1: 5; 2: 5; 3: 6; 4: 4; 5: 5; 6: 5; 7: 5; 8: 5

Batch of 2 compounds: report Viability of tumor cells (% viability), Human prostate cancer 22Rv1 cells for each.
1. CCc1c(O)cc(O)c(C(=O)c2ccsc2)c1CC(=O)N(CCO)CCOC
2. CCc1c(O)cc(O)c(C(=O)c2ccc(OC)cc2)c1CC(=O)N1CCc2cc(OC)c(OC)cc2C1

# output
1. 5
2. 4
